- measuredOn: Neurotensin receptor type 1 (Homo sapiens, UniProt P30989)
- Sequence (P30989 whole entry): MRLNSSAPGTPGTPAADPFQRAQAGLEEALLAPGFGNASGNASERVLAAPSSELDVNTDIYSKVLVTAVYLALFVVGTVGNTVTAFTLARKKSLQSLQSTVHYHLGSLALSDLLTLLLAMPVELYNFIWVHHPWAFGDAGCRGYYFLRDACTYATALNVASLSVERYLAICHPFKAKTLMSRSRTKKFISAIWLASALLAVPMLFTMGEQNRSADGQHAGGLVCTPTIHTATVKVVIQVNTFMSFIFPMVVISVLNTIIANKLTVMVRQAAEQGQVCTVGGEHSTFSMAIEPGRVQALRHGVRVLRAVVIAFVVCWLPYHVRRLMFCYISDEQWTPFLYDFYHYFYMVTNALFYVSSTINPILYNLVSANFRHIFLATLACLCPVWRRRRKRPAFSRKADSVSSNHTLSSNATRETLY
- testProtocol: Displacement of [125I]-neurotensin from human recombinant NTS1 stably expressed in CHO-K1 cell membranes incubated for 60 mins by gamma counter method
pKi: −log10 of the molar value. Numbered stars: 1 amine (or outer) side, 2 acyl side, 3 side chain; on linkers, the order of the positions; unused ones are H or OH. Square brackets hold non-standard residues; d marks the D form. Peptide text beside a SMILES is read from it. X1 = O=C1[C@@H](N[*:1])Cc2ccccc2CN1CCC(=O)[*:2]; X2 = O=C([C@@H]1Cc2cc(O)ccc2CN1[*:1])[*:2]; Dmt = Cc1cc(O)cc(C)c1C[C@H](N)C(=O)O; mTyr = N[C@@H](Cc1cccc(O)c1)C(=O)O; Tle = CC(C)(C)[C@H](N)C(=O)O

molecule	measuredOn	pKi
Cc1cc(O)cc(C)c1C[C@H](N)C(=O)N[C@H](CCCNC(=N)N)C(=O)N[C@H]1Cc2ccccc2CN(CCC(=O)N[C@@H](CCCNC(=N)N)C(=O)N[C@@H](CCCNC(=N)N)C(=O)N2CCC[C@H]2C(=O)N2Cc3ccc(O)cc3C[C@H]2C(=O)N[C@H](C(=O)N[C@@H](CC(C)C)C(=O)O)C(C)(C)C)C1=O (H-[Dmt][dR][X1]RRP[X2][Tle]L-OH)	Neurotensin receptor type 1 (Homo sapiens, UniProt P30989)	5.33
Cc1cc(O)cc(C)c1C[C@H](N)C(=O)N[C@H](CCCNC(=N)N)C(=O)N[C@H]1Cc2ccccc2CN(CCC(=O)N[C@@H](CCCCN)C(=O)N[C@@H](CCCCN)C(=O)N2CCC[C@H]2C(=O)N[C@@H](Cc2cccc(O)c2)C(=O)N[C@H](C(=O)N[C@@H](CC(C)C)C(=O)O)C(C)(C)C)C1=O (H-[Dmt][dR][X1]KKP[mTyr][Tle]L-OH)	Neurotensin receptor type 1 (Homo sapiens, UniProt P30989)	7.23
CC(C)C[C@H](NC(=O)[C@@H](NC(=O)[C@@H]1Cc2cc(O)ccc2CN1C(=O)[C@@H]1CCCN1C(=O)[C@H](CCCNC(=N)N)NC(=O)[C@@H](N)CCCNC(=N)N)C(C)(C)C)C(=O)O (H-RRP[X2][Tle]L-OH)	Neurotensin receptor type 1 (Homo sapiens, UniProt P30989)	5.18
